Listed here are compounds together with their documented Decomposition efficiency of glycitin family in defatted soybean.
# Tested on: Crude diglycosidase
# ASSAY_REMARKS: Examination of temperature in the conversion into isoflavone aglycons by diglycosidase using soybean materials
# Assay type: biochemical, Penicillium multicolor IAM7153
# Parameters: concentration or dose not given beside the values
# RUN_PARAMETERS: 80° C., heat treatment of enzyme yes, reaction time 6 h
READOUT_KIND: Decomposition efficiency of glycitin family in defatted soybean (%)

>>> result("COc1cc2c(=O)c(-c3ccc(O)cc3)coc2cc1O")
51.9
>>> result("COc1cc2c(=O)c(-c3ccc(O)cc3)coc2cc1O[C@@H]1O[C@H](COC(=O)CC(=O)O)[C@@H](O)[C@H](O)[C@H]1O")
48.1
